meta.source: patent EP2469278A1

SUBJECT OF TEST: T1, hen egg-white lysozyme (HEL) (Gallus gallus, UniProt P00698)
T1 construct: hen egg-white lysozyme (HEL); purchased Sigma
ASSAY SUMMARY: Titration of H4S conjugates with HEL, monitored by fluorescence
Format: binding
PARTICULARS: relative sensitivity of the conjugate at a fixed concentration of 0.3 µM (Equation 8), HEL, buffer C
READOUT LABEL: sr
Answer as a number with no unit attached.

Query: Dear colleague, I am looking for the recorded sr of the following molecule: Trp22: H4S conjugate: residue Trp22 changed into cysteine and coupled with the IANBD fluorophore (conjugate) MRGSHHHHHHGSVKVKFFWNGEEKEVDTSKIVCVKRAGKSVLFIYDDNGKNGYGDVTEKDAPKELLDMLARAEREKKLN
Reply: 0.06
